This section presents molecules with their documented pIC50 values.
- TESTED_TARGET: Menin-MLL (Homo sapiens, UniProt O00255)
- Construct: His-Menin (M1-L615 end); purchased BIORTUS BP9210
- Sequence (O00255 1-615 isoform O00255-1): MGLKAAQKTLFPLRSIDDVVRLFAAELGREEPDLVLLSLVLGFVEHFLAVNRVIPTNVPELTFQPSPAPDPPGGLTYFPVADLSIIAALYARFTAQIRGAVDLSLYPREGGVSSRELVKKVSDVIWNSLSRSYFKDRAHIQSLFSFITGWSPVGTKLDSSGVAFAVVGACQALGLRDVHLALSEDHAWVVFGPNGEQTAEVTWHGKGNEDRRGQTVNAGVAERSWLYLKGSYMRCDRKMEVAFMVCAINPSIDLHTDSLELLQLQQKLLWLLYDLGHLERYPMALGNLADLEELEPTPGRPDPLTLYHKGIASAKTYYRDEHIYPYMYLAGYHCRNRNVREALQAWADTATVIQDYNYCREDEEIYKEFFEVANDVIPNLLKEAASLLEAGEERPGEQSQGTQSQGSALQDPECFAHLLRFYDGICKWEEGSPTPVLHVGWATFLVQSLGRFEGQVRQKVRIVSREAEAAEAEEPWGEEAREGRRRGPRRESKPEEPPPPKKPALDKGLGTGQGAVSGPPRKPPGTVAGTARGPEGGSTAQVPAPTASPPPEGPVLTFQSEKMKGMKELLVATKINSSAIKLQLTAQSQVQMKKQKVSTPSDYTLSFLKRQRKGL
- EXPERIMENT_DESCRIPTION: Inhibitory activity against Menin-MLL binding (fluorescence polarization)
- CONDITION_DESCRIPTION: fluorescence polarization; 150 nM His-Menin, 15 nM FITC-MLL; 25°C for 60 min; read-out: Menin-MLL IC50
// pIC50 here means minus log10 of the molar concentration (mol/L)

Answered cases to consult:
>  <MOLECULE>
CCN(C(=O)c1cc(F)ccc1-c1cc(C2CCN(CC3CCN(c4nnc(C)o4)CC3)C2)cn2cncc12)C(C)C (stereo not shown)

>  <pIC50>
7.20

$$$$
>  <MOLECULE>
CCN(C(=O)c1cc(F)ccc1-c1cc(C2CN(C(C[C@H](O)CO)C(C)C)C2)cn2c(C)ncc12)C(C)C (stereo partly shown)

>  <pIC50>
7.92

$$$$

Entry "CCN(C(=O)c1cc(F)ccc1-c1cc(C2CN([C@@H](CCCN3CCN(C(C)=O)CC3)C(C)C)C2)cn2c(C)nc(F)c12)C(C)C" , system Menin-MLL (Homo sapiens, UniProt O00255): what pIC50 was measured?
7.32

Entry "Cc1ncc2c(-c3ccc(F)cc3C(=O)N(C(C)C)C(C)C)cc(C3CN([C@H](CCCN4CCN(CCO)CC4)C(C)C)C3)cn12" , system Menin-MLL (Homo sapiens, UniProt O00255): what pIC50 was measured?
8.64

Origin of measurements: patent EP4782453A1
